List of IC50 values.
systemName: SARM1 SAM-TIR (Homo sapiens (Human), UniProt Q6SZW1)
Sequence (Q6SZW1 409-724): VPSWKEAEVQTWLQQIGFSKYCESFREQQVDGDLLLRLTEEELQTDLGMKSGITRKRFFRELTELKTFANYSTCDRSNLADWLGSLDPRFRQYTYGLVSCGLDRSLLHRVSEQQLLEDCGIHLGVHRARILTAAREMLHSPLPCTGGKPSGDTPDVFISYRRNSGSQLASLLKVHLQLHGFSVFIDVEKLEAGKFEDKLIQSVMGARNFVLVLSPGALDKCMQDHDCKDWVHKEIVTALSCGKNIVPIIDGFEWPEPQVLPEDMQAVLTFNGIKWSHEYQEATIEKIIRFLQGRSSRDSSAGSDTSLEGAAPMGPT
methodSummary: biochemical
setupConditions: SAM-TIR lysate 5 μg/mL, 2 hr pre-incubation, 5 μM NAD+, RapidFire MS

molecule=O=c1cc(Br)c2ccncc2[nH]1 assayvalue="< 5 µM"
molecule=Nc1nccc2c(Br)cccc12 assayvalue="< 5 µM"
molecule=CC(C)c1c[nH]c(=O)c2cnccc12 assayvalue="5 to 15 µM"
molecule=Nc1cccc2c(Br)cncc12 assayvalue="> 30 µM"
molecule=COc1cccc2cnncc12 assayvalue="5 to 15 µM"
molecule=CCn1cc(Br)c2ccncc2c1=O assayvalue="5 to 15 µM"
molecule=COC(=O)c1cccc2cnccc12 assayvalue="> 30 µM"

Query string: Look up and report measured IC50 for this entry: COc1cccc2cnccc12
Result string: 5 to 15 µM
